- subject of test: Sialidase-3 (Homo sapiens, UniProt Q9UQ49)
- Sequence (Q9UQ49 whole entry): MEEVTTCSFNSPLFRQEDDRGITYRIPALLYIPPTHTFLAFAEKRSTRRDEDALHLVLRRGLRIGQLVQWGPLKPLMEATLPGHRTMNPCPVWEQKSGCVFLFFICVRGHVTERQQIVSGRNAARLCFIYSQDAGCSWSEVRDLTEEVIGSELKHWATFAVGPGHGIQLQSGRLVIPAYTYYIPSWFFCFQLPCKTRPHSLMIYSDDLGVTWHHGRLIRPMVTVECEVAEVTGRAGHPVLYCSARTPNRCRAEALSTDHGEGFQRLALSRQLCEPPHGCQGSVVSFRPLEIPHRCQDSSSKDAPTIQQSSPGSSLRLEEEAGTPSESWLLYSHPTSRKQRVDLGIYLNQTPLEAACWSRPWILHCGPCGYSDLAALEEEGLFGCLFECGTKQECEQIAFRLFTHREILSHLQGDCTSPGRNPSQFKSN
- procedure summary: Inhibition of human recombinant NEU3 expressed in Escherichia coli pre-incubated for 10 mins before addition of followed by the addition of MUNANA substrate
pIC50: −log10 of the molar value.
assay readout: pIC50

> print(dat)
                           molecular.string  measurement
1  C#CCCC(=O)N[C@@H]1[C@@H](O)[C@@H](F)[C@](F)(C(=O)O)O[C@H]1[C@H](O)[C@H](O)CO         5.30
